recorded.metric: melting point

Cc1c(C(=O)c2ccc([N+](=O)[O-])cc2)[n+]([O-])c2cc(Cl)c(Cl)cc2[n+]1[O-] ... 215 to 217 °C
COc1cc2c(cc1OC)[n+]([O-])c(C(C)=O)c(C)[n+]2[O-] ... 254 °C
COc1cc2c(cc1OC)[n+]([O-])c(-c1ccccc1)c(C(=O)c1ccccc1)[n+]2[O-] ... 286 °C (dec.)

Recorded melting point (compound O=C(c1ccccc1)c1c(-c2ccccc2)[n+]([O-])c2cc(F)c(F)cc2[n+]1[O-] ): 249 to 251 °C

Recorded melting point (compound Cc1c(C(=O)c2ccc([N+](=O)[O-])cc2)[n+]([O-])c2cc(F)c(F)cc2[n+]1[O-] ): 232 to 233 °C
